experimentDescription: chemical recovery from spiked human plasma; higher = better extraction
details: pooled human plasma; extraction method: solvent precipitation (ACN + hexane)
endpointLabel: chemical recovery

Entry c1ccc2nc3ccccc3cc2c1 has what chemical recovery? 49.6%

Entry O=S1OC[C@@H]2[C@H](CO1)[C@@]1(Cl)C(Cl)=C(Cl)[C@]2(Cl)C1(Cl)Cl (stereo partly drawn) [alpha-Endosulfan] has what chemical recovery? 13.6%

Entry CN(C1CCCCC1)C1CCCCC1 has what chemical recovery? 50.9%

Entry CCc1cccc(C)c1N(C(=O)CS(=O)(=O)O)C(C)COC (stereo not given) has what chemical recovery? 69.1%

Entry CCCCCCCCCCCC(=O)NCCO has what chemical recovery? 74.2%

====

# key: entry, value: chemical recovery into PDMS
experimentDescription: chemical recovery into PDMS from spiked human plasma; higher = better extraction
details: pooled human plasma; extraction method: PES with PDMS; equilibration time (d): 3
Reply with just the number (in %).

# annotated cases, reported chemical recovery into PDMS shown
compound	chemical recovery into PDMS, %
Nc1ccccc1-c1ccccc1 [2-Aminobiphenyl]	14
C/C(=C\c1ccccc1)c1ccccc1 [trans-a-Methylstilbene]	97.6
CCCc1nc2c(C)cc(-c3nc4ccccc4n3C)cc2n1Cc1ccc(-c2ccccc2C(=O)O)cc1 [Telmisartan]	0.817
O=C(NC(=O)c1c(F)cccc1F)Nc1ccc(Cl)cc1 [Diflubenzuron]	38.3
c1cc2ccc3cccc4ccc(c1)c2c34 [Pyrene]	79.6
CC(C)N(C(=O)SCC(Cl)=C(Cl)Cl)C(C)C [Triallate]	32.2

Entry Cc1cc(Cc2ccc(N)c(C)c2)ccc1N [4,4'-Methylene-bis(2-methyl aniline)] has what chemical recovery into PDMS? 0.00421

Entry CCCOP(=O)(OCCC)OCCC [Tripropyl phosphate] has what chemical recovery into PDMS? 35.3

Entry CC(=O)c1cc2c(cc1C)C(C)(C)C(C)C2(C)C (configuration not stated) [Phantolide] has what chemical recovery into PDMS? 37.4

Entry O=c1ccc2ccccc2[nH]1 [2-Hydroxyquinoline] has what chemical recovery into PDMS? 15.6

====

experimentDescription: chemical recovery into PDMS from spiked human plasma; higher = better extraction
details: pooled human plasma; extraction method: PES with PDMS; equilibration time (d): 6
# key: entry, value: chemical recovery into PDMS
Reply with just the number (in %).

compound	unitAnnotation	chemical recovery into PDMS
CNC(=O)/C(=N/OC)c1ccccc1COc1cc(C)ccc1C	%	43.2
CC(C)N(C(=O)SCC(Cl)=C(Cl)Cl)C(C)C [Triallate]	%	29.8
CC(=O)[C@@]1(O)CC[C@H]2[C@@H]3C[C@H](C)C4=CC(=O)C=C[C@]4(C)[C@@]3(F)[C@@H](O)C[C@@]21C	%	4.15

Entry O=C(O)CCC(=O)c1ccc(F)cc1 has what chemical recovery into PDMS? 0.0611

Entry C1=Cc2ccccc2Nc2ccccc21 has what chemical recovery into PDMS? 1.36

Entry CC1(C)[C@H](C=C(Cl)Cl)[C@H]1C(=O)OCc1c(F)c(F)cc(F)c1F [Transfluthrin] has what chemical recovery into PDMS? 92.7

====

experimentDescription: chemical recovery into PDMS from spiked human plasma; higher = better extraction
details: pooled human plasma; extraction method: PES with PDMS; equilibration time (d): 6
endpointLabel: chemical recovery into PDMS (%)
Reply with just the number (in %).

                                   compound                endpointlabel  testresult
0  CCC(CC)Nc1c([N+](=O)[O-])cc(C)c(C)c1[N+](=O)[O-]  chemical recovery into PDMS        47.5

Entry Fc1ccc(Oc2ccnc3cc(Cl)cc(Cl)c23)cc1 has what chemical recovery into PDMS? 48.7

Entry CS(=O)(=O)c1ccccc1 has what chemical recovery into PDMS? 100

Entry CCC(C)OC(=O)N1CCCCC1CCO (stereo not given) has what chemical recovery into PDMS? 35.5

Entry N#C/N=C1\SCCN1Cc1ccc(Cl)nc1 has what chemical recovery into PDMS? 29.8
